Test system: VDR:RXRa (NR concentration 270 nM, RXRa partner concentration 90 nM)
Test Description: PBM binding z-score (relative to random genomic background probes); higher = stronger binding; sequences stand for … in GC…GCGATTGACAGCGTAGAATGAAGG
// class assignment uses PBM binding z-score with these ranges: lower level (below 0.8), middle level (0.8 to below 3), upper level (3 or more)

INSERT INTO measurements (sequence_string, classification) VALUES
  ('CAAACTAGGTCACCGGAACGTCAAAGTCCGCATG', 'middle level'),
  ('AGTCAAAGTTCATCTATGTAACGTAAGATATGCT', 'upper level'),
  ('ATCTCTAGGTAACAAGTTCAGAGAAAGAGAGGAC', 'middle level'),
  ('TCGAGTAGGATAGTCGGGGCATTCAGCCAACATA', 'lower level'),
  ('ATCTGTAGGTAACAAGTTCAGTGAAAGAGAGGAC', 'middle level'),
  ('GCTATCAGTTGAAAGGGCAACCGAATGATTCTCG', 'lower level'),
  ('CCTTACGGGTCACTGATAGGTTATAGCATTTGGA', 'upper level'),
  ('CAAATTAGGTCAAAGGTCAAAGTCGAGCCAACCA', 'upper level'),
  ('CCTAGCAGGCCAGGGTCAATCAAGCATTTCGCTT', 'middle level'),
  ('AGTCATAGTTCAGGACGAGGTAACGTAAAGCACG', 'middle level'),
  ('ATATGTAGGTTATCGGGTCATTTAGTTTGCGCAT', 'upper level'),
  ('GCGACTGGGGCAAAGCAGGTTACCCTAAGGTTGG', 'lower level'),
  ('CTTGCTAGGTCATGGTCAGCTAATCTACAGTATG', 'middle level'),
  ('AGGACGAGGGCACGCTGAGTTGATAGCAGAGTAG', 'middle level'),
  ('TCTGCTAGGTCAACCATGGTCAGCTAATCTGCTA', 'middle level'),
  ('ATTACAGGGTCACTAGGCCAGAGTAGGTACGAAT', 'upper level'),
  ('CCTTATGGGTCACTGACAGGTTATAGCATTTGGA', 'middle level'),
  ('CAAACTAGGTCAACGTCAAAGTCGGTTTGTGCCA', 'middle level'),
  ('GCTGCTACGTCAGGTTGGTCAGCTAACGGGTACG', 'lower level'),
  ('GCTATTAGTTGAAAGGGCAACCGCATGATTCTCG', 'lower level'),
  ('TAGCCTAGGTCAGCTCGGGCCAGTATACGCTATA', 'lower level'),
  ('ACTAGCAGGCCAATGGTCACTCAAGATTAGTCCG', 'lower level'),
  ('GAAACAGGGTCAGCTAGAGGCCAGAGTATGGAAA', 'upper level'),
  ('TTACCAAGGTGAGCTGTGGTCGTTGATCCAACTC', 'lower level'),
  ('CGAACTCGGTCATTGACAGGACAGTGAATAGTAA', 'lower level');

The reported measurements were obtained from the supplement of paper PMC6555819.
